Source listed as paper PMC5540273.

System: IRAK1
Details: concentration: 1 μM, replicates: in singlicate; n = 1;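 note: KINOMEscan kinase panel screen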
Label True when %Inh is strictly below 6%; at or above that, label False.

[
  {
    "molecule": "Cc1ccc(-c2nc(Nc3ccncc3)c3ccccc3n2)s1",
    "group": "True"
  },
  {
    "molecule": "COc1ccc(CSc2nnc(-c3ccc4ncsc4c3)o2)cc1C(F)(F)F",
    "group": "True"
  },
  {
    "molecule": "CNCc1ccc2nc(NC(=O)c3ccc(C(C)(C)C)cc3)cn2c1",
    "group": "False"
  },
  {
    "molecule": "Cc1c(Cn2c(C)c(C)n3c(=O)cc(N4CCOCC4)nc23)cccc1C(F)(F)F",
    "group": "True"
  },
  {
    "molecule": "Cc1c(Cn2c3ccccc3n3c(=O)cc(N4CCOCC4)nc23)cccc1C(F)(F)F",
    "group": "True"
  },
  {
    "molecule": "COc1ccc2cc(-c3nc(-c4ccccc4C(C)C)[nH]c3-c3ccncc3)ccc2c1",
    "group": "False"
  },
  {
    "molecule": "Cc1cnc(N)c(/C=C/c2cncc(C(=O)NCCc3ccc(Cl)cc3Cl)c2)c1.Cl",
    "group": "False"
  },
  {
    "molecule": "O=C1NC(=O)C(c2ccc(Cl)cc2)=C1Nc1ccc(O)cc1",
    "group": "True"
  },
  {
    "molecule": "COc1cccc(CNC(=O)NC2CCN(c3ccnc(Nc4ccc(F)cc4)n3)C2)c1 (stereo not shown)",
    "group": "False"
  },
  {
    "molecule": "FC(F)(F)c1ccccc1-c1cc(-c2c[nH]nc2-c2ccccn2)ccn1",
    "group": "True"
  },
  {
    "molecule": "Fc1ccc(-c2nn3cccc(F)c3c2-c2ccncc2)cc1",
    "group": "False"
  },
  {
    "molecule": "CSc1ccc(-c2nc3n(c2-c2ccncc2)CCC3)cc1",
    "group": "False"
  }
]

----------
Each entry below lists one item and its recorded %Inh value.
System: CSF1R-autoinhibited
Conditions: concentration: 1 μM, replicates: in singlicate; n = 1

[
  {
    "molecule": "COc1ccc(Nc2nccc(NCCNC(=O)Nc3cc(C)ccc3C)n2)cc1",
    "tested_on": "CSF1R-autoinhibited",
    "quantity_unit": "%",
    "%Inh": 0
  },
  {
    "molecule": "Cc1cnc(N)c(/C=C/c2cncc(C(=O)NCCc3ccc(Cl)cc3Cl)c2)c1.Cl",
    "tested_on": "CSF1R-autoinhibited",
    "quantity_unit": "%",
    "%Inh": 6
  },
  {
    "molecule": "O=C1NC(=O)C(c2ccc(Cl)cc2)=C1Nc1cccc(Cl)c1",
    "tested_on": "CSF1R-autoinhibited",
    "quantity_unit": "%",
    "%Inh": 6
  },
  {
    "molecule": "Cc1ccc(NC(=O)c2ccc(Cl)cc2)cc1-c1ccc(C(=O)Nc2ccncc2)cc1",
    "tested_on": "CSF1R-autoinhibited",
    "quantity_unit": "%",
    "%Inh": 0
  },
  {
    "molecule": "Fc1ccc(-c2nc[nH]c2-c2ccncc2)cc1",
    "tested_on": "CSF1R-autoinhibited",
    "quantity_unit": "%",
    "%Inh": 0
  },
  {
    "molecule": "Cc1ccc(NC(=O)Nc2ccc(Cl)cc2)cc1-c1ccc(C(=O)Nc2ccncc2)cc1",
    "tested_on": "CSF1R-autoinhibited",
    "quantity_unit": "%",
    "%Inh": 4
  },
  {
    "molecule": "COc1cccc(C2=C(Nc3cc(Cl)c(O)c(Cl)c3)C(=O)NC2=O)c1",
    "tested_on": "CSF1R-autoinhibited",
    "quantity_unit": "%",
    "%Inh": 0
  },
  {
    "molecule": "COc1ccc(Nc2nccc(-c3ccc(NC(=O)c4cc5cc(F)ccc5[nH]4)cc3)n2)cc1",
    "tested_on": "CSF1R-autoinhibited",
    "quantity_unit": "%",
    "%Inh": 15
  },
  {
    "molecule": "COc1cccc(CNC(=O)NC2CCN(c3ccnc(Nc4ccc(F)cc4)n3)C2)c1 (stereo not shown)",
    "tested_on": "CSF1R-autoinhibited",
    "quantity_unit": "%",
    "%Inh": 10
  },
  {
    "molecule": "O=C(Nc1n[nH]c2cc(-c3ccsc3)ccc12)C1CC1",
    "tested_on": "CSF1R-autoinhibited",
    "quantity_unit": "%",
    "%Inh": 16
  }
]
